Experiment: collision cross section of modified peptide (TIMS, N2, iRT-aligned); higher = larger / more extended gas-phase ion
Conditions: charge state: 3; modification: Methyl (K)
Consider the following sequences and their measured collision cross section readings.
recordedEndpoint: collision cross section (Å²)

chainSequence	unit	quantitativeReadout
DAIHFYNKSLAEHR [_DAIHFYNK(Methyl (K))SLAEHR_]	Å²	502.11
FLQEFYQDDELGKK [_FLQEFYQDDELGK(Methyl (K))K_]	Å²	499.81
GSLGAQKLANTCFNEIEK [_GSLGAQK(Methyl (K))LANTCFNEIEK_]	Å²	509.24
FDDTNPEKEEAK [_FDDTNPEK(Methyl (K))EEAK_]	Å²	498.56
AAQASDLEKIHLDEK [_AAQASDLEK(Methyl (K))IHLDEK_]	Å²	507.05
SPSDSGYSYETIGKTTK [_SPSDSGYSYETIGK(Methyl (K))TTK_]	Å²	512.24
DYSAPVNFISAGLKK [_DYSAPVNFISAGLK(Methyl (K))K_]	Å²	513.65

----------
Consider the following sequences and their measured collision cross section readings.
Experiment: collision cross section of unmodified peptide (TIMS, N2, iRT-aligned); higher = larger / more extended gas-phase ion
Details: charge state: 3
± gives the standard deviation.

chainSequence	collision cross section
GRGYFEHR	409.47 ± 5.3 Å²
PGGLGSSSLYGLGASRPR	533.78 ± 0.86 Å²
YLHDESGLNR	447.46 ± 1.1 Å²
ATVASSTQKFQDLGVK	485.98 ± 5 Å²
GTISAPGKVVTAAAQAK	518.69 ± 4.3 Å²
GSIGFPGFPGANGEKGGR	519.37 ± 1.2 Å²
GDTGLPGPQGIPGGVGSPGR	497.26 ± 35 Å²
IPQEKCILQTDVK	470.55 ± 3.7 Å²
YEQEHAAIQDKLFQVAK	555.79 ± 2.3 Å²
SGGGYGGDRGGGYGGDR	460.09 ± 0.81 Å²
YGLIFHSTFIGRAAAK	526.88 Å²
GADFLVTEVENGGSLGSKK	535.68 ± 1.1 Å²
SFDEVEGVFGRGGGR	509.8 ± 1.2 Å²
IGAEVYHHLK	435.97 ± 1.1 Å²
TTSYPTPRPYPKPAPSSGK	522.76 ± 0.86 Å²
LQDVSGQLSSSKK	463.47 ± 6.3 Å²
STGLELETPSLVPVKK	520.54 ± 2.5 Å²
PGLKGEQGEPGAPGIR	510.99 ± 0.86 Å²
LYAVHQEGNK	449.31 ± 1.1 Å²
SGNLTEDDKHNNAK	490.18 ± 3.5 Å²
PRLPATGTFK	450.95 ± 3.9 Å²
VPQAQPTKPALK	486.38 ± 2.7 Å²
GGSGGRGVSVSSAR	456.24 ± 1.8 Å²
LSTPPPLAEEEGLASR	482.68 ± 0.86 Å²
SSGPGGQNVNKVNSK	447.95 ± 4.2 Å²
IDLPAENSNSETIIITGKR	565.88 ± 0.52 Å²
SPASDTYIVFGEAK	478.14 ± 0.9 Å²
LLFSNTAAQKLR	485.85 ± 3.4 Å²
VTLEVGKVIQQGR	496.48 ± 2.3 Å²

----------
Experiment: collision cross section of modified peptide (TIMS, N2, iRT-aligned); higher = larger / more extended gas-phase ion
Details: charge state: 3; modification: Propionyl
Consider the following sequences and their measured collision cross section readings.
recordedEndpoint: collision cross section (Å²)

chainSequence	quantitativeReadout
SLGEPAAGEGSAKR [_SLGEPAAGEGSAK(Propionyl)R_]	488
AAQASDLEKIHLDEK [_AAQASDLEK(Propionyl)IHLDEK_]	496.94
PANEKATDDYHYEK [_PANEK(Propionyl)ATDDYHYEK_]	507.47
IHVQSSSDSSDEPAEKR [_IHVQSSSDSSDEPAEK(Propionyl)R_]	506.45
KYEEIDNAPEER [_K(Propionyl)YEEIDNAPEER_]	491.8
DSSPTTNSKLSALQR [_DSSPTTNSK(Propionyl)LSALQR_]	498.95

----------
Experiment: collision cross section of modified peptide (TIMS, N2, iRT-aligned); higher = larger / more extended gas-phase ion
Conditions: charge state: 2; modification: Formyl
Consider the following sequences and their measured collision cross section readings.
recordedEndpoint: collision cross section (Å²)

chainSequence	unit	quantitativeReadout
VFIGNLNTLVVKK [_VFIGNLNTLVVK(Formyl)K_]	Å²	407.78
LQAAYAGDKADDIQK [_LQAAYAGDK(Formyl)ADDIQK_]	Å²	428.24
GSLEKGSPEDK [_GSLEK(Formyl)GSPEDK_]	Å²	358.29
SGNLTEDDKHNNAK [_SGNLTEDDK(Formyl)HNNAK_]	Å²	415.1
SKLLFSNTAAQK [_SK(Formyl)LLFSNTAAQK_]	Å²	390.83
DAIHFYNKSLAEHR [_DAIHFYNK(Formyl)SLAEHR_]	Å²	447.82
INNFSADIKDSK [_INNFSADIK(Formyl)DSK_]	Å²	395.4
VNVEAPDVNLEGLGGKLK [_VNVEAPDVNLEGLGGK(Formyl)LK_]	Å²	459.19
VNALKNLQVK [_VNALK(Formyl)NLQVK_]	Å²	363.1
FDDTNPEKEEAK [_FDDTNPEK(Formyl)EEAK_]	Å²	390.88
LLEQKTQESQK [_LLEQK(Formyl)TQESQK_]	Å²	386.78
IGNSYFKEEK [_IGNSYFK(Formyl)EEK_]	Å²	368.62
FSAYIKNSNPALNDNLEK [_FSAYIK(Formyl)NSNPALNDNLEK_]	Å²	479.47
SPSDSGYSYETIGKTTK [_SPSDSGYSYETIGK(Formyl)TTK_]	Å²	446.06
IQTKAGEATVK [_IQTK(Formyl)AGEATVK_]	Å²	359.75
VYIASSSGSTAIKK [_VYIASSSGSTAIK(Formyl)K_]	Å²	408.95
ALLQAKASGK [_ALLQAK(Formyl)ASGK_]	Å²	340.27
ITGKNQVTATK [_ITGK(Formyl)NQVTATK_]	Å²	360.79

----------
Assay: collision cross section of modified peptide (TIMS, N2, iRT-aligned); higher = larger / more extended gas-phase ion
Conditions: charge state: 3; modification: GlyGly (K)
Label Condition met when collision cross section >= 500 Å²; otherwise Condition not met.

chainSequence	labelValue
TTEETSKPK [_TTEETSK(GlyGly (K))PK_]	Condition not met
PSVGSQSNQAGQGKR [_PSVGSQSNQAGQGK(GlyGly (K))R_]	Condition not met
IQQELQTAKK [_IQQELQTAK(GlyGly (K))K_]	Condition not met
DAIHFYNKSLAEHR [_DAIHFYNK(GlyGly (K))SLAEHR_]	Condition met
SSFAYKDQNENR [_SSFAYK(GlyGly (K))DQNENR_]	Condition not met
VGIDTPDIDIHGPEGKLK [_VGIDTPDIDIHGPEGK(GlyGly (K))LK_]	Condition met
IVEKYGYTHLSAGELLR [_IVEK(GlyGly (K))YGYTHLSAGELLR_]	Condition met

----------
Experiment: collision cross section of modified peptide (TIMS, N2, iRT-aligned); higher = larger / more extended gas-phase ion
Details: charge state: 3; modification: Formyl
recordedEndpoint: collision cross section (Å²)

chainSequence	quantitativeReadout
DYSAPVNFISAGLKK [_DYSAPVNFISAGLK(Formyl)K_]	526.56
DAIHFYNKSLAEHR [_DAIHFYNK(Formyl)SLAEHR_]	498.82
DSINFLDHINGKK [_DSINFLDHINGK(Formyl)K_]	468.04
AAQASDLEKIHLDEK [_AAQASDLEK(Formyl)IHLDEK_]	490.12
LGNDFHTNKR [_LGNDFHTNK(Formyl)R_]	438.07
GTISAPGKVVTAAAQAK [_GTISAPGK(Formyl)VVTAAAQAK_]	511.74
PASGAGAGAGAGKR [_PASGAGAGAGAGK(Formyl)R_]	453.33
ITESVAETAQTIKK [_ITESVAETAQTIK(Formyl)K_]	507.5
FGTINIVHPKLGSYTK [_FGTINIVHPK(Formyl)LGSYTK_]	546.15
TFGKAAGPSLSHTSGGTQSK [_TFGK(Formyl)AAGPSLSHTSGGTQSK_]	508.22
PANEKATDDYHYEK [_PANEK(Formyl)ATDDYHYEK_]	497.77
LDHLAEKFR [_LDHLAEK(Formyl)FR_]	435.6

----------
Consider the following sequences and their measured collision cross section readings.
Assay: collision cross section of modified peptide (TIMS, N2, iRT-aligned); higher = larger / more extended gas-phase ion
Conditions: charge state: 2; modification: Methyl (R)

chainSequence	collision cross section, Å²
AAHGRGALAEAAR [_AAHGR(Methyl (R))GALAEAAR_]	401.51
STNVTVAAARGIK [_STNVTVAAAR(Methyl (R))GIK_]	403.35
GFLQPPPLRQPR [_GFLQPPPLR(Methyl (R))QPR_]	399.75
